IC50 reference
target_under_test: motilin receptor (Oryctolagus cuniculus, UniProt G1T803)
Construct: from tissue; host or cells: rabbit antral smooth muscle membranes
Sequence (G1T803 1-400): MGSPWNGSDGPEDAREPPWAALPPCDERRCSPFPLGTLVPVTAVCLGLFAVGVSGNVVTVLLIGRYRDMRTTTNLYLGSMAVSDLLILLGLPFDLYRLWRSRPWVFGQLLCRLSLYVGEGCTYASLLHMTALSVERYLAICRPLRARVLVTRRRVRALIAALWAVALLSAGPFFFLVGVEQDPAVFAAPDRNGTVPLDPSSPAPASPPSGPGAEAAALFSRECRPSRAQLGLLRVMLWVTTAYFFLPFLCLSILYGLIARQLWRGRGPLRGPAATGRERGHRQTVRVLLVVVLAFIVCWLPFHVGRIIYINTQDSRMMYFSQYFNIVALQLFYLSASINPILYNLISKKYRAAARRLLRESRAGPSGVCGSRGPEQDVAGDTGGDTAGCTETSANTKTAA
protocol_summary: Determination of motilin receptor binding affinity (displacement of [125I-Tyr7, Nle13]motilin(porcine))
Set-up: species or system rabbit
settings: negative logarithm of the concentration displacing 50% of [125I-Tyr7, Nle13]motilin(porcine) from rabbit antral smooth muscle membranes; read-out: pIC50 (converted)
Structures can show the parent of a compound that is named as a salt. Peptide text beside a SMILES is read from it. * marks the point of attachment. X1 = C[N+](C)(C)[C@@H](Cc1ccccc1)C(=O)*; X2 = C#CCN(C)[C@@H](Cc1ccccc1)C(=O)*
endpoint: IC50 (nM)

- CC[C@H](C)[C@H](NC(=O)[C@@H]1CCCN1C(=O)[C@@H](NC(=O)[C@H](Cc1ccccc1)[N+](C)(C)C)C(C)C)C(=O)N[C@@H](Cc1ccccc1)C(=O)N[C@H](C(=O)N[C@@H](Cc1ccc(O)cc1)C(=O)NCC(=O)N[C@@H](CCC(=O)O)C(=O)N[C@@H](CC(C)C)C(=O)N[C@@H](CCC(N)=O)C(=O)N[C@@H](CCCNC(=N)N)C(=O)N[C@@H](CC(C)C)C(=O)N[C@@H](CCC(N)=O)C(=O)O)[C@@H](C)O [[Me3 N^+ Phe^1, Leu^13]pMOT(1-14), Bis-trifluoroacetate Salt] (X1-VPIFTYGELQRLQ-OH): 3.55
- C#CCN(C)[C@@H](Cc1ccccc1)C(=O)N[C@H](C(=O)N1CCC[C@H]1C(=O)N[C@H](C(=O)N[C@@H](Cc1ccccc1)C(=O)N[C@H](C(=O)N[C@@H](Cc1ccc(O)cc1)C(=O)NCC(=O)N[C@@H](CCC(=O)O)C(=O)N[C@@H](CC(C)C)C(=O)N[C@@H](CCC(N)=O)C(=O)N[C@@H](CCCNC(=N)N)C(=O)N[C@@H](CC(C)C)C(=O)N[C@@H](CCC(N)=O)C(N)=O)[C@@H](C)O)[C@@H](C)CC)C(C)C (X2-VPIFTYGELQRLQ-NH2): 2

* * *

target_under_test: motilin receptor (Oryctolagus cuniculus)
Construct: from tissue; host or cells: rabbit antral smooth muscle membranes
protocol_summary: Determination of motilin receptor binding affinity (displacement of [125I-Tyr7, Nle13]motilin(porcine))
Set-up: species or system rabbit
settings: negative logarithm of the concentration displacing 50% of [125I-Tyr7, Nle13]motilin(porcine) from rabbit antral smooth muscle membranes; read-out: pIC50 (converted)
Square brackets hold non-standard residues; d marks the D form. Peptide text beside a SMILES is read from it. * marks the point of attachment. X1 = C[N+](C)(C)[C@@H](Cc1ccccc1)C(=O)*; NMe2Phe = CN(C)[C@@H](Cc1ccccc1)C(=O)*
IC50 reference
endpoint: IC50 (nM)

- CC[C@H](C)[C@H](NC(=O)[C@@H]1CCCN1C(=O)[C@@H](NC(=O)[C@H](Cc1ccccc1)N(C)C)C(C)C)C(=O)N[C@@H](Cc1ccccc1)C(=O)N[C@H](C(=O)N[C@@H](Cc1ccc(O)cc1)C(=O)NCC(=O)N[C@@H](CCC(=O)O)C(=O)N[C@@H](CC(C)C)C(=O)N[C@@H](C)C(=O)N[C@H](CCCNC(=N)N)C(=O)N[C@@H](CC(C)C)C(=O)N[C@@H](CCC(N)=O)C(N)=O)[C@@H](C)O (NMe2Phe-VPIFTYGELA[dR]LQ-NH2): 1.95
- CC[C@H](C)[C@H](NC(=O)[C@H](C)NC(=O)[C@@H](NC(=O)[C@H](Cc1ccccc1)[N+](C)(C)C)C(C)C)C(=O)N[C@@H](Cc1ccccc1)C(=O)N[C@H](C(=O)N[C@@H](Cc1ccc(O)cc1)C(=O)NCC(=O)N[C@@H](CCC(=O)O)C(=O)N[C@@H](CC(C)C)C(=O)N[C@@H](CCC(N)=O)C(=O)N[C@H](CCCNC(=N)N)C(=O)N[C@@H](CC(C)C)C(=O)N[C@H](CCC(N)=O)C(N)=O)[C@@H](C)O (X1-VAIFTYGELQ[dR]L[dQ]-NH2): 1.41
- CC[C@H](C)[C@H](NC(=O)[C@@H]1CCCN1C(=O)[C@@H](NC(=O)[C@@H](N)Cc1ccccc1)C(C)C)C(=O)N[C@@H](Cc1ccccc1)C(=O)N[C@H](C(=O)N[C@@H](Cc1ccc(O)cc1)C(=O)NCC(=O)N[C@@H](CCC(=O)O)C(=O)N[C@@H](CC(C)C)C(=O)N[C@@H](CCC(N)=O)C(=O)N[C@H](CCCNC(=N)N)C(=O)N[C@@H](CC(C)C)C(=O)N[C@@H](CCCCN)C(N)=O)[C@@H](C)O (H-FVPIFTYGELQ[dR]LK-NH2): 1.29
